- System: U937 human histiocytic leukemia cell line
- assay-method-text: Cellular assay: inhibition of TSQ induced necroptosis, CellTitre-Glo viability
- protocol-conditions: Homo sapiens, U-937; U937 cells, 48 hours, TSQ cocktail, Table 26; read-out: Inhibition of TSQ-induced necroptosis (IC50 cell-based assay)
pIC50: −log10 of the molar value.
Listing: pIC50 of selected compounds

{"compound": "Cc1ncsc1-c1ccc(CNC(=O)[C@@H]2C[C@@H](O)CN2C(=O)[C@H](NC(=O)C2(F)CC2)C(C)(C)C)c(OCCCCCCCn2cc(-c3cnc(N)c4c(-c5ccc(NS(=O)(=O)C(F)F)c(O[C@@H](C)c6ccc(F)cc6)c5)nn(C)c34)cn2)c1", "pIC50": "> 6.00"}
{"compound": "Cc1ncsc1-c1ccc(CNC(=O)[C@@H]2C[C@@H](O)CN2C(=O)[C@@H](NC(=O)CCN2CCCC(n3cc(-c4cnc(N)c5c(-c6ccc(NS(=O)(=O)C(F)F)c(O[C@@H](C)c7ccc(F)cc7)c6)nn(C)c45)cn3)C2)C(C)(C)C)cc1 (stereo partly drawn)", "pIC50": "> 6.00"}
{"compound": "CCS(=O)(=O)Nc1ccc(-c2nn(C)c3c(-c4cnn(CCOCCOCC(=O)N[C@H](C(=O)N5C[C@H](O)C[C@H]5C(=O)NCc5ccc(-c6scnc6C)cc5)C(C)(C)C)c4)cnc(C)c23)cc1F", "pIC50": "> 6.00"}
{"compound": "CCS(=O)(=O)Nc1ccc(-c2nn(C)c3c(-c4cnn(CCCCCCC(=O)N[C@H](C(=O)N5C[C@H](O)C[C@H]5C(=O)NCc5ccc(-c6scnc6C)cc5)C(C)(C)C)c4)cnc(N)c23)cc1", "pIC50": "> 6.00"}
{"compound": "CCS(=O)(=O)Nc1ccc(-c2n[nH]c3c(-c4cnn(CCOCCOCC(=O)N[C@H](C(=O)N5C[C@H](O)C[C@H]5C(=O)NCc5ccc(-c6scnc6C)cc5)C(C)(C)C)c4)cnc(N)c23)cc1OCc1ccc(F)cc1", "pIC50": "5.00 to 6.00"}
{"compound": "Cc1ncsc1-c1ccc(CNC(=O)[C@@H]2C[C@@H](O)CN2C(=O)[C@@H](NC(=O)COCCOCCOCCn2cc(-c3cnc(N)c4c(-c5ccc(NS(=O)(=O)C(F)F)c(O[C@@H](C)c6ccc(F)cc6)c5)nn(C)c34)cn2)C(C)(C)C)cc1", "pIC50": "> 6.00"}
{"compound": "Cc1ncsc1-c1ccc(CNC(=O)[C@@H]2C[C@@H](O)CN2C(=O)[C@@H](NC(=O)CN2CCC(n3cc(-c4cnc(N)c5c(-c6ccc(NS(=O)(=O)C(F)F)c(O[C@@H](C)c7ccc(F)cc7)c6)nn(C)c45)cn3)CC2)C(C)(C)C)cc1", "pIC50": "> 6.00"}
{"compound": "CCS(=O)(=O)Nc1ccc(-c2n[nH]c3c(-c4cnn(CCC(=O)N[C@H](C(=O)N5C[C@H](O)C[C@H]5C(=O)NCc5ccc(-c6scnc6C)cc5)C(C)(C)C)c4)cnc(N)c23)cc1OCc1ccc(F)cc1", "pIC50": "< 5.00"}
{"compound": "C[C@H](Oc1cc(-c2nn(C)c3c(-c4cnn(CCCCCCCOc5cccc6c5C(=O)N(C5CCC(=O)NC5=O)C6=O)c4)cnc(N)c23)ccc1NS(=O)(=O)C(F)F)c1ccc(F)cc1 (stereo partly drawn)", "pIC50": "> 6.00"}
